This listing pairs molecules with measured cell viability.
tested on: MOLM14; assay: cell viability relative to vehicle control; higher = less cytotoxic; settings: 10 µM; SRSF2 genotype: SRSF2 wt/wt;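 also: after 48 h exposure read by CellTiter-Glo luminescence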
Counter-ions that a name gives are not always drawn.
Write the answer as a number in %, unit excluded.

Molecule	cell viability / %
C/C1=C2N=C(/C=C3N=C(/C(C)=C4\[N-]C(C(CC(N)=O)C4(C)CCC(=O)NCC(C)OP(=O)([O-])OC4C(CO)OC(n5cnc6cc(C)c(C)cc65)C4O)C4(C)N=C1C(CCC(N)=O)C4(C)CC(N)=O)C(CCC(N)=O)C\3(C)C)C(CCC(N)=O)C/2(C)CC(N)=O.[CH3-].[Co+3] (configuration not stated)	94.3
O=C(O)C(S)=Cc1c[nH]c2ccc(F)cc12	98.3
CN(C)c1ccc2nc3ccc(=[N+](C)C)cc-3sc2c1	2.58
CN1CCC(COc2cnc(-c3cccc(Cn4nc(-c5cccc(C#N)c5)ccc4=O)c3)nc2)CC1	47.5
CCCCOC(=O)c1ccccc1Nc1cccc(C(F)(F)F)c1 [Ufenamate]	109
N=C(N)Nc1ccc(C(=O)Oc2ccc3cc(C(=N)N)ccc3c2)cc1 [Nafamostat mesylate]	89.4

Lab note: next molecule to report on.
query: Endpoint output: cell viability of `CNC(=O)c1ccccc1Nc1cc(Nc2ccc(N3CCOCC3)cc2OC)ncc1C(F)(F)F` . Value?
result: 11.4

----------
tested on: OCI-AML2; test: cell viability relative to vehicle control; higher = less cytotoxic; settings: 10 µM; SRSF2 genotype: wt/wt
Structures can show the parent of a compound that is named as a salt.
Measured Attribute: cell viability (%)
Write the answer as a number in %, unit excluded.

The following molecules have reported results that may help.
Molecule	cell viability (%)
Nc1cccc2c1CN(C1CCC(=O)NC1=O)C2=O (stereo unspecified) [Lenalidomide (CC-5013)]	113
Cn1nnnc1SCC1=C(C(=O)O)N2C(=O)[C@@H](NC(=O)[C@H](OC=O)c3ccccc3)[C@H]2SC1 [S3638 Cefamandole (nafate).cdx]	97.6
CN1CCN(C2CCN(C(=O)Nc3cc(Oc4ccc(NC(=O)C5(C(=O)Nc6ccc(F)cc6)CC5)c(F)c4)ccn3)CC2)CC1 [Golvatinib (E7050)]	18.6
CN(C)c1nc(N(C)C)nc(N(C)C)n1	98.4
CCOC(=O)[C@H](CCc1ccccc1)N[C@@H](C)C(=O)N1C(=O)N(C)C[C@H]1C(=O)O [Imidapril HCl]	87.7

query: Request - read-out cell viability | tested on OCI-AML2 | molecule `O=C(Cn1cnnn1)N[C@@H]1C(=O)N2C(C(=O)O)=C(CSc3nncs3)CS[C@H]12`
result: 109

query: Request - read-out cell viability | tested on OCI-AML2 | molecule O=c1c2ccccc2nc2n1CCc1c-2[nH]c2ccccc12 [Rutaecarpine (Rutecarpine)]
result: 104

query: Request - read-out cell viability | tested on OCI-AML2 | molecule `O=C1C(c2c(O)[nH]c3ccccc23)=Nc2ccccc21`
result: 92.9

query: Request - read-out cell viability | tested on OCI-AML2 | molecule `C[C@H](NC(=O)CCC(F)(F)F)C(=O)N[C@@H]1C(=O)N(CCO)c2ncccc2-c2ccccc21`
result: 99.8

query: Request - read-out cell viability | tested on OCI-AML2 | molecule `CCN(CC)CCNC(=O)c1c(C)[nH]c(/C=C2\C(=O)Nc3ccc(-c4csc(-c5ccccc5)n4)cc32)c1C`
result: 26

query: Request - read-out cell viability | tested on OCI-AML2 | molecule OC[C@H]1O[C@@](CO)(O[C@H]2O[C@H](CO)[C@@H](O)[C@H](O)[C@H]2O)[C@@H](O[C@H]2O[C@H](CO)[C@@H](O)[C@H](O)[C@H]2O)[C@@H]1O [Melezitose]
result: 114

query: Request - read-out cell viability | tested on OCI-AML2 | molecule C=C1C2CCC3C2C(C)(C)CCCC13C (single isomer, unassigned; (+)) [(+)-Longifolene]
result: 115

query: Request - read-out cell viability | tested on OCI-AML2 | molecule NC(=O)c1cccc(N)c1 [INO-1001 (3-Aminobenzamide)]
result: 98.8

query: Request - read-out cell viability | tested on OCI-AML2 | molecule `C[C@@H]1CC(=O)c2c(ccc3c2C(=O)c2cccc(O)c2C3=O)C1`
result: 43.6

query: Request - read-out cell viability | tested on OCI-AML2 | molecule `CCOc1cc(C(C)(C)C)ccc1C1=N[C@@](C)(c2ccc(Cl)cc2)[C@@](C)(c2ccc(Cl)cc2)N1C(=O)N1CCN(CCCS(C)(=O)=O)CC1`
result: 13.8

query: Request - read-out cell viability | tested on OCI-AML2 | molecule `Cc1ccc(C(C)C)cc2c(C)ccc1-2`
result: 93.4

----------
This listing pairs molecules with measured cell viability.
tested on: MARIMO; test: cell viability relative to vehicle control; higher = less cytotoxic; settings: 10 µM; SRSF2 genotype: SRSF2 P95H/wt
Write the answer as a number in %, unit excluded.

The following molecules have reported results that may help.
Molecule	Result Units	cell viability
Nc1nc2cc(-c3ccc4ncc(C(=O)N5CCOCC5)n4c3)ccc2o1 [Serabelisib (INK-1117,MLN-1117,TAK-117)]	%	64.5
Cc1cc(Nc2ncc(Cl)c(Nc3ccccc3S(=O)(=O)C(C)C)n2)c(OC(C)C)cc1C1CCNCC1 [Ceritinib (LDK378)]	%	0.2
C[S+](CC[C@H](N)C(=O)[O-])C[C@H]1O[C@@H](n2cnc3c(N)ncnc32)[C@H](O)[C@@H]1O (stereo not given in full) [Ademetionine]	%	104
O=C(c1cccc(Br)c1)N1CCC(N2CCCC2)CC1	%	92.3

query: Endpoint output: cell viability of CC(=O)OC/C=C(/C)CCC=C(C)C [Neryl acetate] . Value?
result: 96.8

----------
This listing pairs molecules with measured cell viability.
test system: OCI-AML2; test: cell viability relative to vehicle control; higher = less cytotoxic; conditions: 10 µM; SRSF2 genotype: wt/wt
Where a name gives a salt, the structure may show the parent alone.
Write the answer as a number in %, unit excluded.

The following molecules have reported results that may help.
Molecule	Measured On	Result Units	cell viability
OCCN(CCO)c1nc(N2CCCCC2)c2nc(N(CCO)CCO)nc(N3CCCCC3)c2n1 [Dipyridamole (Persantine)]	OCI-AML2	%	108
CNC(=O)c1c(F)cccc1Nc1nc(Nc2cc3c(cc2OC)CCN3C(=O)CN(C)C)nc2[nH]ccc12	OCI-AML2	%	1.46
CNCC[C@@H](Oc1ccccc1C)c1ccccc1 [Atomoxetine HCl]	OCI-AML2	%	94.6

query: Endpoint output: cell viability of C/C(=C(/CCOC(=O)c1ccccc1)SC(=O)c1ccccc1)N(C=O)Cc1cnc(C)nc1N [Dibenzoyl Thiamine] . Value?
result: 109

query: Endpoint output: cell viability of COc1cc(C(C)=O)ccc1OCCCN1CCC(c2noc3cc(F)ccc23)CC1 [Iloperidone (Fanapt)] . Value?
result: 83.4

query: Endpoint output: cell viability of CC1=C(CC[C@@H](C)CO[C@@H]2O[C@H](CO)[C@@H](O)[C@H](O)[C@H]2O)O[C@H]2C[C@H]3[C@@H]4CC=C5C[C@@H](O[C@@H]6O[C@H](CO)[C@@H](O[C@@H]7O[C@@H](C)[C@H](O)[C@@H](O)[C@H]7O)[C@H](O)[C@H]6O[C@@H]6O[C@@H](C)[C@H](O)[C@@H](O)[C@H]6O)CC[C@]5(C)[C@H]4CC[C@]3(C)[C@@H]12 [Pseudoprotodioscin] . Value?
result: 105

query: Endpoint output: cell viability of COc1ccc(C[C@@H]2c3cc(Oc4cc(C[C@@H]5c6cc(O)c(OC)cc6CCN5C)ccc4O)c(OC)cc3CCN2C)cc1 [Isoliensinine] . Value?
result: 0.95

query: Endpoint output: cell viability of O=c1cc(-c2ccc(O)cc2)oc2c([C@@H]3OC[C@H](O)[C@H](O)[C@H]3O)c(O)c([C@@H]3O[C@H](CO)[C@@H](O)[C@H](O)[C@H]3O)c(O)c12 [Schaftoside] . Value?
result: 105

query: Endpoint output: cell viability of C[C@]12C[C@@H](O)[C@@H]3C[C@@]1(O[C@@H]1O[C@H](CO)[C@@H](O)[C@H](O)[C@H]1O)[C@@]3(COC(=O)c1ccccc1)C(=O)O2 [Albiflorin] . Value?
result: 92.9

query: Endpoint output: cell viability of CNc1nc(Nc2cnn(C3CCN(C4COC4)CC3F)c2Cl)ncc1C(F)(F)F (stereo not drawn) . Value?
result: 47.6

query: Endpoint output: cell viability of `COc1cc2ncnc(Oc3cccc(NC(=O)Nc4cc(C(C)(C)C(F)(F)F)on4)c3)c2cc1OC` . Value?
result: 61.5

query: Endpoint output: cell viability of CC1CCC2(C(=O)O)CCC3(C)C(=CCC4C5(C)CCC(OC6OCC(O)C(O)C6O)C(C)(C)C5CCC43C)C2C1(C)O (stereo not drawn) [Ziyuglycoside II] . Value?
result: 95.6

query: Endpoint output: cell viability of `NC(=O)c1cc(F)cc2c1C(=O)N(C1CCN(C3CCC(F)(F)CC3)CC1)C2` . Value?
result: 96.1
